Listed here are compounds together with their documented EC50.
- measurement target: hM4 receptors (Homo sapiens, UniProt P08173)
- Sequence (P08173 1-479): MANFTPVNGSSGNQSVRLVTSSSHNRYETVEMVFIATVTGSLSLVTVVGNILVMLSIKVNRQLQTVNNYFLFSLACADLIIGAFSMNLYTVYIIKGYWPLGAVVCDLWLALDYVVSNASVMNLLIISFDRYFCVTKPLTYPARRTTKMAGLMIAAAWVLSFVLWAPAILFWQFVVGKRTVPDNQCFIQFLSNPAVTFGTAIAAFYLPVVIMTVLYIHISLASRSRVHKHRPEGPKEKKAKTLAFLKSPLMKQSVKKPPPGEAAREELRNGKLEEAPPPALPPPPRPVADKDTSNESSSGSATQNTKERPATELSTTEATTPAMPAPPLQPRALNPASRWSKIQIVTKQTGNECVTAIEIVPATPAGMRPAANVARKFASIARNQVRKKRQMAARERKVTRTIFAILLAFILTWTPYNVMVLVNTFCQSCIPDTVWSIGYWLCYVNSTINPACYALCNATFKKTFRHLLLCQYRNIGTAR
- assay comment: Human M4 PAM pERK assay
- details: CHO cells expressing hM4; with EC20 of acetylcholine (10 nM final)
- Experimental: Chinese hamster ovary (CHO) cells expressing either hM4 or rM4 receptors were frozen in assay ready vials (5×10^6 cells/vial) after bulking-up in culture. The day before an assay, vial(s) were thawed and cells seeded in 384 well white proxiplates at 1000/well for hM4 cells and at 2000/well for rM4 cells, in 10 μL of growth media (Hams/F12 with glutamax and 10% FCS) and incubated overnight at 37° C./5% CO2. […]

For orientation, consider the following solved cases.
> print(dat)
                                   compound                        measurement.target  measurement.type       result
1  Cc1c2c(n(C)c(=O)c1C)CN(C(=O)CC1CC1c1cc(F)cc(F)c1)C2 (stereo not drawn) [Compound I-21]  hM4 receptors (Homo sapiens, UniProt P08173)              EC50     < 0.1 µM
2  Cc1c2c(n(C)c(=O)c1Cl)CN(C(=O)CC1CC1c1ccc(C(F)(F)F)cc1)C2 (single isomer, unassigned) [Compound I-32]  hM4 receptors (Homo sapiens, UniProt P08173)              EC50  0.5 to 2 µM

Exercise: EC50 lookup needed for Cc1c2c(n(C)c(=O)c1F)CN(C(=O)CC1CC1c1cc(F)cc(F)c1)C2 (single isomer, unassigned) [Compound I-27] , thanks.
Solution: < 0.1 µM

Exercise: EC50 lookup needed for Cc1c2c(n(C)c(=O)c1Cl)CN(C(=O)CC1CC1c1cc(F)cc(F)c1)C2 (single isomer, unassigned) [Compound I-35] , thanks.
Solution: 0.5 to 2 µM

Exercise: EC50 lookup needed for Cc1c2c(n(C)c(=O)c1F)CN(C(=O)CC1CC1c1ccc(C(F)(F)F)cc1)C2 (single isomer, unassigned) [Compound I-25] , thanks.
Solution: 0.5 to 2 µM

Exercise: EC50 lookup needed for Cc1cc(=O)n(C)c2c1CN(C(=O)CC1CC1c1ccc(S(=O)(=O)C(F)(F)F)cc1)C2 (single isomer, unassigned) [Compound I-8] , thanks.
Solution: > 2 µM

Exercise: EC50 lookup needed for COc1c2c(n(C)c(=O)c1C)CN(C(=O)CC1CC1c1ccc(C(F)(F)F)cc1)C2 (stereo not drawn) [Compound I-30] , thanks.
Solution: > 2 µM

Exercise: EC50 lookup needed for Cc1c2c(n(C)c(=O)c1C)CN(C(=O)CC1CC1c1cc(F)cc(F)c1)C2 (single isomer, unassigned) [Compound I-22] , thanks.
Solution: > 2 µM

Exercise: EC50 lookup needed for Cc1cc(=O)n(C)c2c1CN(C(=O)CC1CC1c1ccc(C(F)(F)F)cc1)C2 (single isomer, unassigned) [Compound I-7] , thanks.
Solution: 0.1 to 0.5 µM

----------
- measurement target: hM4 receptors (Homo sapiens, UniProt P08173)
- assay comment: Human M4 PAM pERK assay
- details: CHO cells expressing hM4; with EC20 of acetylcholine (10 nM final)
pEC50: −log10 of the molar value.
Listed here are molecules together with their documented pEC50.

For orientation, consider the following solved cases.
> print(dat)
                                   molecule                        measurement.target  result
1  Cc1cc(=O)n(C)c2c1CN(C(=O)CC1CC1c1cccc(C3COC3)c1)C2 (single isomer, unassigned) [Compound I-13]  hM4 receptors (Homo sapiens, UniProt P08173)  < 5.70
2  Cc1cc(=O)n(C)c2c1CN(C(=O)CC1CC1c1ccnc(C(F)(F)F)c1)C2 (single isomer, unassigned) [Compound I-1]  hM4 receptors (Homo sapiens, UniProt P08173)  < 5.70

Note: attention shifts to another entry.
Exercise: pEC50 lookup needed for Cc1c2c(n(C)c(=O)c1C)CN(C(=O)CC1CC1c1ccc(C(F)(F)F)cc1)C2 (single isomer, unassigned) [Compound I-19] , thanks.
Solution: < 5.70
